# Tested on: K562
# METHOD: NCI tumour cell line growth inhibition, 48 h
Activity calls are given as the source filed them. No stated cut-off is given here; in the data, active = GI50 up to about 1.1 µM and inactive = higher.
Outcomes: 1.0 = active, 0.0 = inactive

>>> class("C[C@]12CC[C@H]3[C@@H](CCC4=CC(=O)CC[C@@]43C)[C@@H]1CC[C@@H]2OC(=O)c1cccc2c(=O)c3ccccc3[nH]c12")
0.0
>>> class("CC(=O)Nc1ccccc1NC1CC(C)N(c2ccccc2)N1C(C)=O (stereo unspecified)")
0.0
>>> class("Nc1nc2c(c(=O)[nH]1)C(c1ccc(Cl)cc1)C=C(c1ccccc1)N2 (stereo unspecified)")
0.0
>>> class("O=[N+]([O-])c1cc([As](Br)c2ccc(O)c([N+](=O)[O-])c2)ccc1O")
1.0
>>> class("CN(C(=O)c1cccs1)C(=S)N1CCN(c2ccccn2)CC1")
0.0
>>> class("C/C(=N\\NC(=S)N1CCCCCC1)c1cccc2cccnc12")
1.0
